// reported 100 nM Ag Bound (RU) per item
studyTarget: T1, Macaca fascicularis IL2Rγ extracellular domain expressed with a C-terminal myc-myc-hexahistidine tag (Macaca fascicularis)
T1 construct: also called mfIL-2Rg-MMH; mfIL-2RG-MMH
T1 chain: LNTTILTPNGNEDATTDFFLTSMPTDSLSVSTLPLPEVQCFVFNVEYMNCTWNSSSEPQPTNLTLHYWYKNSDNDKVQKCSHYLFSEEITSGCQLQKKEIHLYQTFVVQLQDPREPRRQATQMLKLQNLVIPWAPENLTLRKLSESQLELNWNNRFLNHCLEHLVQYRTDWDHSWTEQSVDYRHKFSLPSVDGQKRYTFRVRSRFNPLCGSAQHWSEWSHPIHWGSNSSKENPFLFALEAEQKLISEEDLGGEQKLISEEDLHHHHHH
assayInfo: SPR, captured mAb, 25C, dissociation pH 6.0
Field format: number, assumed RU, no unit text.

• H4H12889P (antibody, human IgG4 S228P, kappa, V domains shown, anti-IL2Rgamma mAb expressed with human IgG4 Fc; also called REGN7257) VH: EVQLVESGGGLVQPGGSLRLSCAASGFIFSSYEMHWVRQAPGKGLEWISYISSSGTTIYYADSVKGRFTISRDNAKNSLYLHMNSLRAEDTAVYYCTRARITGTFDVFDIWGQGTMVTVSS VL: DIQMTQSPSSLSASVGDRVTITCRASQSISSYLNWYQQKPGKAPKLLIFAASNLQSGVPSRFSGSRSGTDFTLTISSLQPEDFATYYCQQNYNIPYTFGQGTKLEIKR = 126

Query: Item under review: H4H12890P (antibody, human IgG4 S228P, kappa, V domains shown, anti-IL2Rgamma mAb expressed with human IgG4 Fc) VH: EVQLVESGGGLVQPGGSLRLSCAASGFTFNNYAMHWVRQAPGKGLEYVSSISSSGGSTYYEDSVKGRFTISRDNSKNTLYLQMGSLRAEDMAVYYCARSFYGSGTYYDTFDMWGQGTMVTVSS VL: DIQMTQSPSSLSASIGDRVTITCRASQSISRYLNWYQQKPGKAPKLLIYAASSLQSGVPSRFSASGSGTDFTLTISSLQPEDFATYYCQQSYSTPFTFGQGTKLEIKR . Reported 100 nM Ag Bound (RU)?
Response: 60

Query: And for H4H12858P (antibody, human IgG4 S228P, kappa, V domains shown, anti-IL2Rgamma mAb expressed with human IgG4 Fc; also called REGN9433) VH: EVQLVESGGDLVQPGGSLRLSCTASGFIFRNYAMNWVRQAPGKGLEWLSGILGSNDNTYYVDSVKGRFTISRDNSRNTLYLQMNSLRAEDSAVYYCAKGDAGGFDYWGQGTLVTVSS VL: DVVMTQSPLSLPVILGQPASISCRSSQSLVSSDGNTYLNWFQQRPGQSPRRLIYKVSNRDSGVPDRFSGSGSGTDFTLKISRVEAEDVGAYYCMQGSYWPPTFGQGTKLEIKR ?
Response: 100

Query: Now this one: H4H13541P (antibody, human IgG4 S228P, kappa, V domains shown, anti-IL2Rgamma mAb expressed with human IgG4 Fc) VH: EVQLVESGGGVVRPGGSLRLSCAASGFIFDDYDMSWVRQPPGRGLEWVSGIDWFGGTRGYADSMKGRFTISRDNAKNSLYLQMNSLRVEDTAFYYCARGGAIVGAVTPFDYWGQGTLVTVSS VL: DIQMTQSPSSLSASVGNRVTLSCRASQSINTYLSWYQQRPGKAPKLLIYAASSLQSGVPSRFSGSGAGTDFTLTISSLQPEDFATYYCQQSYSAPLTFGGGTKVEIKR
Response: 69

Query: Thanks! And H4H13538P (antibody, human IgG4 S228P, kappa, V domains shown, anti-IL2Rgamma mAb expressed with human IgG4 Fc) VH: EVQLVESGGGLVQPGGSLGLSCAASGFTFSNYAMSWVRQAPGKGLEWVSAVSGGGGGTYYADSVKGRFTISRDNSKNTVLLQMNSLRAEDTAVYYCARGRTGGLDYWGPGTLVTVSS VL: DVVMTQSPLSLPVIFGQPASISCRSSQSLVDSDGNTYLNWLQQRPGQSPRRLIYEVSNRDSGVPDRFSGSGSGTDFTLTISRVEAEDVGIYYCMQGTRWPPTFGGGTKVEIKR ?
Response: 96

Reference for the values: patent US20200247894A1
